Reference source for all entries: ChEMBL document CHEMBL1133068

Target: Human immunodeficiency virus type 1 reverse transcriptase (Human immunodeficiency virus 1, UniProt Q72547)
Experiment: The compound was evaluated for the inhibition of HIV-1 reverse transcriptase
Binary label based on IC50 with cut-off 5 µM: below gives True, not below gives False.

{"compound": "O=S1(=O)Nc2ccc(Cl)cc2C(C#CC2CC2)(C2CC2)N1 (stereo not given)", "qualitative label": "False"}
{"compound": "CC(C)C#CC1(C(C)C)NS(=O)(=O)Nc2ccc(Cl)cc21 (stereo not given)", "qualitative label": "True"}
{"compound": "CC(C)C#CC1(C2CC2)NS(=O)(=O)Nc2ccc(Cl)cc21 (stereo not given)", "qualitative label": "True"}
{"compound": "O=S1(=O)Nc2ccc(F)c(F)c2C(C#CC2CC2)(C(F)(F)F)N1 (stereo not given)", "qualitative label": "False"}
{"compound": "O=C1Nc2ccc(Cl)cc2[C@@](C#CC2CC2)(C(F)(F)F)N1", "qualitative label": "True"}
